Provenance of the data: PubChem BioAssay (NCI)

test system: CCRF-CEM leukemia; assay: NCI tumour cell line growth inhibition, 48 h
READOUT: TGI

CN(C)c1ccc(/C=C\C2=[N+](C)c3ccccc3C2(C)C)cc1 : > 100 µM

q: Entry under review: Cc1c(C(=O)CC(=O)C(=O)Nc2ccccc2C(F)(F)F)[n+](=O)c2ccccc2n1[O-] . Reported TGI?
a: 50 µM

q: Entry under review: COc1cc2c(c3oc4c(O)cccc4c(=O)c13)CC(C(C)(O)CO)O2 (stereo unspecified) . Reported TGI?
a: > 100 µM

q: Entry under review: COC(=O)c1cc(=O)nc2sc3cccc(C)c3n12 . Reported TGI?
a: > 100 µM

q: Entry under review: Cc1ccc([N+](=O)[O-])cc1NC1=NCCO1 . Reported TGI?
a: > 100 µM

q: Entry under review: COC(=O)C([C@H](NC1(c2ccccc2)c2ccccc2-c2ccccc21)C(=O)OC)N(NC(=O)OCc1ccccc1)C(=O)OCc1ccccc1 (mixture of isomers) . Reported TGI?
a: > 100 µM

q: Entry under review: CNC(=S)OCCC(C)CCCC(C)C (stereo unspecified) . Reported TGI?
a: 40.7 µM

q: Entry under review: COc1cccc(C(=O)O[C@H]2[C@@H]3[C@]4(OC(C)=O)CO[C@@H]4C[C@H](O)[C@@]3(C)C(=O)[C@H](OC(C)=O)C3=C(C)[C@@H](OC(=O)[C@H](O)[C@@H](NC(=O)OC(C)(C)C)c4ccco4)C[C@]2(O)C3(C)C)c1 . Reported TGI?
a: 0.368 µM

q: Entry under review: CCN1/C(=C\c2cc[n+](CC)c3ccccc23)C=Cc2ccccc21 . Reported TGI?
a: 13.4 µM

q: Entry under review: CCCN(C(=O)c1ccccc1)C(C#N)c1ccc(C(C#N)N(CCC)C(=O)c2ccccc2)cc1 (stereo unspecified) . Reported TGI?
a: > 100 µM

q: Entry under review: O=C1C=CC(=O)c2c1ccc1c3ccccc3n(CCCCCCCCCCCCn3c4ccccc4c4ccc5c(c43)C(=O)C=CC5=O)c21 . Reported TGI?
a: 74.1 µM

q: Entry under review: COc1cc2c(c(OC)c1OC)C(=O)[C@@H]1[C@H]2N1C(N)=O . Reported TGI?
a: > 100 µM

q: Entry under review: C1=C2/CC[C@H](Sc3ccccc3)C2C2(CCCCC/1)OCCO2 (stereo partly specified) . Reported TGI?
a: > 100 µM

q: Entry under review: CCOC(=O)C(SCCO)C(C(=O)OCC)n1cnc2c(=O)[nH]c(NC(C)=O)nc21 (stereo unspecified) . Reported TGI?
a: > 100 µM

====

system: BT-549 breast; assay: NCI tumour cell line growth inhibition, 48 h
Quick reference: GI50 of the listed items.

Sample answers from the record:
CN1CCCCC1CCN1c2ccccc2Sc2ccc(Cl)cc21 (stereo not drawn) : 10400 nM
Cc1ccc(NC(=O)Nc2ccc(-c3cccnc3)cc2N2CCC(CO)CC2)cc1 : 1960 nM

We next turn to a different compound, shown below.
q: Entry under review: COC(=O)/C=C1\S/C(=N\NC(=O)c2cc3ccc2/C=C\c2ccc(cc2)/C=C\3)N(c2ccccc2)C1=O . Reported GI50?
a: 2220 nM

====

tested on: KM12 colon; assay: NCI tumour cell line growth inhibition, 48 h
READOUT: TGI

Sample answers from the record:
CCCCCCc1cc2cc(-c3csc(CC#N)n3)c(=O)oc2cc1O : > 100 µM
CN(C)C(=S)N=C(Nc1ccccc1)Nc1ccccc1 : > 100 µM

We next turn to a different molecule, shown below.
q: Fill in the recorded TGI for this molecule, with KM12 colon as test system: O=[N+]([O-])c1ccc2c(c1)c(OCc1ccccc1)nn2Cc1ccccc1
a: > 100 µM
